Tested on: TDF;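 note: TDF is a line of transformed human dermal fibroblasts of mesenchymal origin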
PROCEDURE_SUMMARY: H1.0 immunofluorescence intensity relative to DMSO (% of DMSO); higher = stronger H1.0 induction, active = 120 or more
MEASUREMENT_PARAMETERS: concentration: 10 µM; 24 h
Listing of recorded H1.0 immunofluorescence intensity by entry.
Give only the figure.

For the compound shown here, CCN(CC)CCOc1ccc(C(=C(Cl)c2ccccc2)c2ccccc2)cc1 [Clomiphene] , give the reported H1.0 immunofluorescence intensity. 98

For the compound shown here, CN(C)CCCN1c2ccccc2Sc2ccc(C(F)(F)F)cc21.Cl [Triflupromazine hydrochloride] , give the reported H1.0 immunofluorescence intensity. 110

For the compound shown here, CN(C)CCOc1ccc(C(=C(CCCl)c2ccccc2)c2ccccc2)cc1 [Toremifene] , give the reported H1.0 immunofluorescence intensity. 102

For the compound shown here, "Brc1c(NC2=NCCN2)ccc2nccnc12" , give the reported H1.0 immunofluorescence intensity. 90.2

For the compound shown here, "Cc1ccc(S(=O)(=O)Cc2nc(-c3ccc(C(=O)NCc4cccnc4)cc3)oc2C)cc1" , give the reported H1.0 immunofluorescence intensity. 102
